# MEASUREMENT NOTES: collision cross section in nitrogen (drift tube, single-field); higher = larger gas-phase ion size;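 also: chemical standards at 10 µM analysed by drift tube IMS-QTOF MS in about 3.95 torr nitrogen, mean of duplicate injections differing ≤1%, mass error below 10 ppm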
# PROTOCOL CONDITIONS: ion type: [M+H]; ion source: APCI; ion mode: Positive
READOUT TYPE: collision cross section in nitrogen (Å²)
Provide the reading as a plain figure in Å².

// known answers, use as guide
MOLECULE: CCN(CC)c1ccc(C=O)cc1 [4-(Diethylamino)benzaldehyde]
READOUT TYPE: collision cross section in nitrogen
RECORDED MEASUREMENT: 139.4
--
MOLECULE: CC(C)c1c(C(=O)Nc2ccccc2)c(-c2ccccc2)c(-c2ccc(F)cc2)n1CC[C@@H](O)C[C@@H](O)CC(=O)O [Atorvastatin]
READOUT TYPE: collision cross section in nitrogen
RECORDED MEASUREMENT: 229.1

Recorded collision cross section in nitrogen for c1ccc2c(c1)CCN2 [Indoline] , please?
120.8

Data request, read-out collision cross section in nitrogen, for COc1nc(NC(C)C)nc(NC(C)C)n1 [Prometon]
156.1
